target_of_assay: eNOS (Bos taurus)
Construct: further column purification with gel filtration or anion exchange produces very pure full length NOS
test_summary: Griess assay of NO production by eNOS
particulars: titration of eNOS in the presence of 'fully' activating levels of Ca+2/CaM; plate reader Greiss assay; read-out: apparent Kd of additional activation
Procedure: Nitric Oxide production was assayed using the Griess assay as adapted for microtiter plates (Gross, S. S. (1996) Methods Enzymol. 268:159-68); calcium dependence was measured using EDTA as a Ca+2 buffer system. […] NADPH-dependent cytochrome c reduction was measured spectrophotometrically as described by McMillan et al (McMillan, K., et al., (1992) Proc Nat. Acad. Sci. U.S.A. 89, 11141-11145), adapted to 96-well plate microtiter plates. […] Cytochrome c reduction was monitored at 550 nm (ε=2.1×104/M). […]
measured_quantity: Kd

Form field: reported Kd of Nc1ncnc2c1ncn2[C@@H]1O[C@H](CO)[C@@H](O)[C@H]1OP(=O)(O)O [2′AMP] ~1000 µM
